System: SNB-75 CNS
Assay: NCI tumour cell line growth inhibition, 48 h; in the data active = GI50 below about 0.43 µM; inactive = the rest
Valid outcomes are listed here; reply with one: active, inactive

Input: Just curious, what result did `O=C1Nc2ccccc2/C1=C/C(=N/c1nnc(-c2ccccc2)s1)c1ccccc1` get here?
Output: inactive

Input: Field: outcome | Entry: `Cn1ncc2c(Sc3ccc(Cl)cc3)ncnc21`
Output: inactive

Input: Which outcome was entered for the compound `COc1cc(-c2nc3ccc(C)cc3[nH]2)ccc1OCC(=O)N=Nc1c(O)[nH]c2ccc(Cl)cc12` in this test?
Output: inactive

Input: Hey, what did the test say about `C=C(C)C(=O)Oc1ccc(N=Nc2ccc(C)cc2)ccc1=O` ?
Output: inactive

Input: Any idea what this test logged for CCCC(c1nnnn1C1CCCCC1)N1CCN(C(=O)c2ccco2)CC1 (stereo not given) ?
Output: inactive

Input: Can you look up the reported call for `CS(=O)(=O)Nc1cc(-c2ccc3ncnc(Nc4ccc5c(cnn5Cc5cccc(F)c5)c4)c3c2)cnc1Cl` for me?
Output: active

Input: Hi, sorry to bother you, what did the test record for `COc1ccc(/C=C(\C#N)c2ccc(OC)cc2)cc1` ?
Output: inactive

Input: Which outcome did this test record for the compound Clc1ccc(CCC(Cn2ccnc2)Sc2c(Cl)cccc2Cl)cc1 (stereo not given) ?
Output: inactive

Input: Per the records of this test, what outcome belongs to `CCN(Cc1ccncc1)c1ccc(CO)c(Cl)c1` ?
Output: inactive

Input: // return assay outcome for `NS(=O)(=O)N(c1cc(C(F)(F)F)cc(C(F)(F)F)c1)C1CCN(Cc2ccc(F)cc2)CC1`
Output: inactive

* * *

Kindly supply the reported TGI values for the records listed here.
Test system: T-47D breast
Test: NCI tumour cell line growth inhibition, 48 h

Input: Lab request: please report TGI under test system T-47D breast for `O=C1/C(=C/c2ccc(Cl)cc2)COc2ccc(O)cc21`
Output: 5.59 µM

Input: Form entry - test system: T-47D breast; read-out: TGI; molecule: `O=C(NCCc1[nH]nc2c1C(=O)C=C(Nc1ccccc1)C2=O)OCc1ccccc1`
Output: > 100 µM

Input: Notebook entry, T-47D breast assay: TGI of `c1ccc(CSc2nc(N3CCCCC3)c3cn[nH]c3n2)cc1` = ?
Output: > 100 µM

Input: Recorded TGI for `FC(F)(F)c1ccc(-c2cnc(Cl)nc2NC2CCCCCC2)cc1` with T-47D breast, please?
Output: > 100 µM

Input: Entry `Cc1cc(-c2ncc(-c3cccnc3)cc2/C=C/c2ccccc2)cnc1-c1cccnc1` , system T-47D breast: what TGI was measured?
Output: > 30.8 µM

Input: Item: `C/C(=N\O)c1ccc2cc(Br)c3ccccc3c2c1` Test system: T-47D breast Read-out: TGI Value: ?
Output: 93.3 µM

Input: Missing value: TGI, T-47D breast, entry `COC(=O)/C(C#N)=C(\Nc1ccccc1)N1CCCC1` . Fill in?
Output: > 100 µM

Input: Identify the measured TGI of COc1cc2c(c(OC)c1OC)-c1cccc(=O)cc1C(NC(C)=O)CC2 (stereo not given) for T-47D breast.
Output: > 100 µM

Input: Form field - read-out: TGI; system: T-47D breast; submitted item: CNc1ccc(C(=O)CC(O)CCC(C)C2OC(=O)CC(O)CC(=O)CC(O)CC(O)CC(O)CC(O)CC3(O)CC(O)C(C(=O)NCCN(C)C)C(CC(OC4OC(C)C(O)C(NC(=O)CN5CCN(CCO)CC5)C4O)/C=C/C=C/C=C/C=C\C=C/C=C/C=C/C2C)O3)cc1 (stereo not given)
Output: > 50 µM

Input: Request body: readout TGI, system T-47D breast, query O=C(O)C1[C@@H](C(=O)O)C1(Br)CBr (stereo not given in full) . Return the value.
Output: > 100 µM

* * *

System: SNB-75 CNS
Assay: NCI tumour cell line growth inhibition, 48 h
For each entry below, report its GI50 value.

Input: Any idea what its GI50 is? The molecule is CCCCCCCCc1ccc(OCCOCC[N+](C)(C)CC)cc1 (tested in a mixture with another compound)
Output: 2120 nM

Input: Using the record for `C[C@@]12C(=O)OC(=O)[C@]1(C)[C@H]1CC[C@@H]2O1` , report its GI50.
Output: 698 nM

Input: # query: GI50 of entry `O=C(NCCCCNC(=O)OCc1ccc2c(Cl)cc(Cl)c(O)c2n1)OCc1ccc2c(Cl)cc(Cl)c(O)c2n1`
Output: 1230 nM

Input: Fill blank: measured GI50 of the molecule `O=S1CCN(Cc2ccc(-c3ccc4ncnc(Nc5ccc(OCc6ccccc6)c(Cl)c5)c4c3)o2)CC1` is ____.
Output: > 16600 nM

Input: For the molecule shown here, `Cc1ccc(-c2c(C#N)[n+](=O)c3cc(Cl)c(Cl)cc3n2[O-])cc1` , give the reported GI50.
Output: 18200 nM

* * *

Tested on: HT29 colon
Assay: NCI tumour cell line growth inhibition, 48 h
So I've got a bunch of compounds here, and I need their TGI values.
Respond with the bare value in µM.

Input: Returns the measured TGI for the input compound. Input: `N#Cc1c(-c2ccccc2)cc(-c2ccccc2)n(CC(=O)NO)c1=O`
Output: 12.2

Input: # query: TGI of entry Cc1ccc(NC(=O)OCC(COc2ccc(Cl)cc2)OC(=O)Nc2ccc(C)cc2)cc1 (stereo unspecified)
Output: 71.7

Input: If you can, please state the reported TGI value of `NC(=O)SCC(=O)Nc1ccc2cccc3c2c1CC3` .
Output: 88.7

* * *

Test system: COLO 205 colon
Experiment: NCI tumour cell line growth inhibition, 48 h; in the data active means GI50 below about 0.43 µM; inactive means the rest
Bench note: report the call from active, inactive

Input: What was the test verdict on `Nc1cc2c([nH]c[n+]2CC#CCCl)c(SCC#CCCl)n1` ?
Output: inactive

Input: // param item: `COCC(=O)Oc1cc(-c2ccc(C)cc2C)c(OC(=O)COC)c(-c2ccc(C)cc2C)c1` ; yields the recorded call
Output: inactive

Input: What did the test return for CCCC(c1nnnn1C1CCCCC1)N1CCN(C(=O)c2ccco2)CC1 (configuration not stated) ?
Output: inactive

Input: Please state the recorded outcome for this molecule: CCCCCCCCc1ccc(OCCOCC[N+](C)(C)CC)cc1 (tested in a mixture with another compound)
Output: inactive

Input: Tell me the assay call for COc1cc(C2=NNC(c3ccc(N(C)C)cc3)C2)cc(OC)c1OC (configuration not stated) please.
Output: inactive

Input: Hey, what did the test say about `NCCOc1ncccc1/C=C1\c2ccccc2-c2ccc(F)cc21` ?
Output: inactive

Input: Fill in: this test's call for `C=C1C(=O)O[C@H]2[C@H]1CC/C(COC(=O)CCCCCCC(=O)OC/C1=C/CC[C@@]3(C)O[C@H]3[C@H]3OC(=O)C(=C)[C@@H]3CC1)=C\CC[C@@]1(C)O[C@@H]21` is ___
Output: inactive

Input: Test call for this molecule, please: `O=C1/C(=C/c2ccc(Cl)cc2)COc2ccc(O)cc21`
Output: inactive

Input: Please state the recorded outcome for this molecule: Clc1ccc(CCC(Cn2ccnc2)Sc2c(Cl)cccc2Cl)cc1 (configuration not stated)
Output: inactive

Input: Kindly provide the recorded test outcome for the following molecule: CNc1ccc(C(=O)CC(O)CCC(C)C2OC(=O)CC(O)CC(=O)CC(O)CC(O)CC(O)CC(O)CC3(O)CC(O)C(C(=O)NCCN(C)C)C(CC(OC4OC(C)C(O)C(NC(=O)CN5CCN(CCO)CC5)C4O)/C=C/C=C/C=C/C=C\C=C/C=C/C=C/C2C)O3)cc1 (configuration not stated)
Output: inactive

Input: Record lookup: outcome of this test for `FC(F)(F)c1ccc(-c2cnc(Cl)nc2NC2CCCCCC2)cc1` ?
Output: inactive

Input: So what was the verdict on `COc1cc(-c2n[nH]nc2-c2ccc3c(c2)OCCO3)cc(OC)c1OC` in this test?
Output: active
